The measurements presented in this section are drawn from patent US12636371B2.

molecular target: D1 dopamine receptor (Homo sapiens); assay: D1 receptor agonist assay, cAMP Nomad biosensor, HEK_cAMPNmd_FP650_D1 cells
Sequence (P21728 whole entry): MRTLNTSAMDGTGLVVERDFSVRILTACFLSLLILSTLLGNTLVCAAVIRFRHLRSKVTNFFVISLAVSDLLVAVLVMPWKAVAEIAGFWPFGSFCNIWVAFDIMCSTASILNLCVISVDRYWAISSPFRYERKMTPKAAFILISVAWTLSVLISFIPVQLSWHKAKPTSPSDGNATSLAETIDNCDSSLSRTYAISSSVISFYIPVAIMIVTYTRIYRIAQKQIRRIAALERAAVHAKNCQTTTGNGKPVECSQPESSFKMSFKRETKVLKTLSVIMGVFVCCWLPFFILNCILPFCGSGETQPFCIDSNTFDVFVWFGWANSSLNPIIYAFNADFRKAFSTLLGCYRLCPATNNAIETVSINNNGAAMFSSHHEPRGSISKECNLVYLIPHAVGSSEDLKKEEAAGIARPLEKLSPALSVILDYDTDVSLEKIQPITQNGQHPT
Endpoint name: EC50 (nM)
Give the value in nM but do not write nM after it.

Value sought: EC50, system D1 dopamine receptor (Homo sapiens), item C[C@H]1c2ccc(NC(=O)CCC(=O)NCCc3ccc(O)c(O)c3)c(O)c2C(=O)C2=C(O)[C@]3(O)C(=O)C(C(N)=O)=C(O)CC3[C@@H](O)C21 (stereo partly shown) [Pegasus] . Result: 2800

====

tested on: E. coli DH5α; experiment: Antibiotic activity by disc diffusion assay (MIC); assay type: cell-based; details: ratio of MIC to doxycycline MIC
Recorded RATE MIC Compound/Doxycycline, one value per entry.
Enter a number only.

>>> test_result("C[C@H]1c2ccc(N)c(O)c2C(=O)C2=C(O)[C@]3(O)C(=O)C(C(N)=O)=C(O)CC3[C@@H](O)C21 (some centres unmarked)")
8
>>> test_result("C[C@H]1c2ccc([N+](=O)[O-])c(O)c2C(=O)C2=C(O)[C@]3(O)C(=O)C(C(N)=O)=C(O)CC3[C@@H](O)C21 (some centres unmarked)")
32
>>> test_result("C[C@H]1c2ccc(NC(=O)CCl)c(O)c2C(=O)C2=C(O)[C@]3(O)C(=O)C(C(N)=O)=C(O)CC3[C@@H](O)C21 (some centres unmarked)")
64
>>> test_result("C[C@H]1c2cccc(O)c2C(=O)C2=C(O)[C@]3(O)C(=O)C(C(N)=O)=C(O)C(N(C)C)C3[C@@H](O)C21 (some centres unmarked) [Compound D1, Doxycycline Free Form, reference compound]")
1

get_value(item= C[C@H]1c2cccc(O)c2C(=O)C2=C(O)[C@]3(O)C(=O)C(C(N)=O)=C(O)CC3[C@@H](O)C21 (some centres unmarked) , readout=RATE MIC Compound/Doxycycline) returns 16
